# measured-on: T1, Recombinant Human DLL4 (human, UniProt Q9NR61 27-524)
# T1 construct: Bought recombinant human DLL4 (R&D Systems Cat#1506-D4/CF); also called delta-like protein 4; Delta-like 4
# procedure-text: ELISA, DLL4 coated on the plate, Fab at 100 nM, signal minus blank

{"columns": ["binder", "ELISA Signal-blank (100 nM Fab)"],
 "data": [
  ["Fab VH5-51_IGHD5-18*01>3_IGHJ4*01 G100K/G104T G24T/S28R/G35V (H:KT TRV) & V3-4_IGLJ1*01 V91A (Fab, V domains shown, Fab; expressed from plasmid A (CH1, His6 and Flag tags) and plasmid E (lambda CL)) VH: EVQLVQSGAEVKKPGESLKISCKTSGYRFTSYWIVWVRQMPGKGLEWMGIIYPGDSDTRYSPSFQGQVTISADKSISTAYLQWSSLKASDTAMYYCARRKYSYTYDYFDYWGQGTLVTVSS VL: QTVVTQEPSFSVSPGGTVTLTCGLSSGSVSTSYYPSWYQQTPGQAPRTLIYSTNTRSSGVPDRFSGSILGNKAALTITGAQADDESDYYCALYMGSGISYVFGTGTKVTVL", 0.529]
]}
